Cited source: PubChem BioAssay AID743267

Tested on: human bronchial epithelial cells, CFTR corrector, plate reader
Assay: rescue of ΔF508 CFTR function, airway epithelium – human bronchial epithelial cells, plate reader, cherry-pick, two tests, dose response (AID 743267)
Details: measured here: test 2 replicate run
# AC50 listing for each entry below

• COC(=O)/C=C/c1ccccc1S(=O)(=O)N(Cc1ccccc1)Cc1ccco1 = 3.04 µM
• Cc1cnc(NC(=O)CCc2ccccc2)s1 = 6.6 µM
• CCN(c1cccc(C)c1)S(=O)(=O)c1ccc(-c2cc(C)no2)s1 = 5.94 µM
• COc1cc(C(=O)Nc2ccccc2C(=O)Nc2ccccn2)cc(OC)c1OC = 4.59 µM
• CN1/C(=C\C=C2/SC(=S)N(CC(=O)O)C2=O)C(C)(C)c2ccccc21 = 16 µM

// lookup AC50 for "Nc1c2ccccc2nc2ccccc12" 2.62 µM
